tested system: Phospho EGFR TMLR (H1975 cells) (Homo sapiens, UniProt P00533, L858R/T790M)
Construct: H1975 cell line (CRL-5908; Lot BA70803) was obtained from American Type Culture Collection
Sequence (P00533 25-1210 T790M/L858R): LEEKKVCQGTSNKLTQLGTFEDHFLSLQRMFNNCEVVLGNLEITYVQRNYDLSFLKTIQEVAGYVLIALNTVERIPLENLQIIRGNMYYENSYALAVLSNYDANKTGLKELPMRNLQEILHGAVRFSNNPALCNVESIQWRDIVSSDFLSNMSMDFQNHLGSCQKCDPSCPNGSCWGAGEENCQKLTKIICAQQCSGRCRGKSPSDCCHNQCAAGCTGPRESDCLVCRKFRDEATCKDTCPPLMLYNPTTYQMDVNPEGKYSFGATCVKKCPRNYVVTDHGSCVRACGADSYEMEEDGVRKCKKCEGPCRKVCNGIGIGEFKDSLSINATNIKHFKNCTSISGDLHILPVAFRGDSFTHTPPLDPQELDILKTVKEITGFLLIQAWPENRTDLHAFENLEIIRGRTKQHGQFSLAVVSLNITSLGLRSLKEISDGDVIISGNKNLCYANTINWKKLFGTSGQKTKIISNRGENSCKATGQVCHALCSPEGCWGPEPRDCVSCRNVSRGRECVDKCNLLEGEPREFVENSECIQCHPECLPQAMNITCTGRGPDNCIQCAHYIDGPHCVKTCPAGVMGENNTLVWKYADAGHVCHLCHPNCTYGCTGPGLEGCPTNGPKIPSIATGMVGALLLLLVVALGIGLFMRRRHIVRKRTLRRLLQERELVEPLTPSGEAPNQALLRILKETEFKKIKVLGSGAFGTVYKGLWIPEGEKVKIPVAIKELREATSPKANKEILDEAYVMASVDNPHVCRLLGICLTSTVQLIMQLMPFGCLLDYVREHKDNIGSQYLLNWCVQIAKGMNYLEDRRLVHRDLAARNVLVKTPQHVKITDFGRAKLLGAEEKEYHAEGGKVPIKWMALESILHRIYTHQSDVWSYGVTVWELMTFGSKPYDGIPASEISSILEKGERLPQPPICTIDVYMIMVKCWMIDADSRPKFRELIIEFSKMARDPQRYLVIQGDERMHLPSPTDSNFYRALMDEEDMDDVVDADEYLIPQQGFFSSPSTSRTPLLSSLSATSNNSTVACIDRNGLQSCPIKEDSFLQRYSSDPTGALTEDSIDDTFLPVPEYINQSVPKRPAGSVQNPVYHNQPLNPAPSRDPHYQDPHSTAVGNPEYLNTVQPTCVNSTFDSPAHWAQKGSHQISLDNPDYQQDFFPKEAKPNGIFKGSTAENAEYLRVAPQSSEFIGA
protocol summary: HTRF Phospho EGFR TMLR assay (cellular), H1975
condition parameters: H1975 cell line, 16 hours compound incubation, Phospho-EGFR HTRF readout
readout: IC50 (nM)

INSERT INTO measurements (compound, readout, result) VALUES
  ('O=C(Nc1nccs1)C(c1ncn2c1CCC2)N1Cc2c(Cl)cc(C#Cc3ccc(CN4CCC(O)CC4)cc3)cc2C1=O (racemic)', 'IC50', 4),
  ('O=C(Nc1nccs1)C(c1ncn2c1CCC2)N1Cc2c(Cl)cc(-c3ccc(N4CCC(O)CC4)nc3)cc2C1=O (racemic)', 'IC50', 2),
  ('CCN1CCN(c2ccc(-c3cc(F)c4c(c3)C(=O)N(C(C(=O)Nc3nccs3)c3ncn5c3CCC5)C4)cc2)CC1 (racemic)', 'IC50', 3),
  ('O=C(Nc1nccs1)C(c1ncn2c1CCC2)N1Cc2c(F)cc(C#Cc3ccc(CO)cc3)cc2C1=O (racemic)', 'IC50', 2),
  ('O=C(Nc1nccs1)C(c1ncn2c1CCC2)N1Cc2c(F)cc(C#Cc3ccc(CN4CCCCC4)cc3)cc2C1=O (racemic)', 'IC50', 4),
  ('O=C(Nc1nccs1)C(c1ncn2c1CCC2)N1Cc2c(F)cc(-c3ccc(N4CCC(O)CC4)cc3)cc2C1=O (racemic)', 'IC50', 1);

* * *

tested system: Phospho EGFR TMLR (H1975 cells) (Homo sapiens, UniProt P00533, L858R/T790M)
Construct: H1975 cell line (CRL-5908; Lot BA70803) was obtained from American Type Culture Collection; host or cells: H1975
protocol summary: HTRF Phospho EGFR TMLR assay (cellular), H1975
Type: cell-based
condition parameters: H1975 cell line, 16 hours compound incubation, Phospho-EGFR HTRF readout
Lab note: compare IC50 with 3 nM, writing satisfied if less and not satisfied if equal or more.

INSERT INTO measurements (compound, tested_system, label_class) VALUES
  ('O=C(Nc1nccs1)C(c1ncn2c1CCC2)N1Cc2c(Cl)cc(-c3ccc(N4CCC(O)CC4)cc3)cc2C1=O (racemic)', 'Phospho EGFR TMLR (H1975 cells) (Homo sapiens, UniProt P00533, L858R/T790M)', 'satisfied'),
  ('CCN1CCN(c2ccc(-c3cc(F)c4c(c3)C(=O)N(C(C(=O)Nc3nccs3)c3ncn5c3CCC5)C4)cn2)CC1 (racemic)', 'Phospho EGFR TMLR (H1975 cells) (Homo sapiens, UniProt P00533, L858R/T790M)', 'not satisfied'),
  ('O=C(Nc1nccs1)C(c1ncn2c1CCC2)N1Cc2c(F)cc(C#Cc3ccc(CN4CCC(O)CC4)cc3)cc2C1=O (racemic)', 'Phospho EGFR TMLR (H1975 cells) (Homo sapiens, UniProt P00533, L858R/T790M)', 'satisfied'),
  ('O=C(Nc1nccs1)C(c1ncn2c1CCC2)N1Cc2c(F)cc(-c3ccc(N4CCNCC4)cc3)cc2C1=O (racemic)', 'Phospho EGFR TMLR (H1975 cells) (Homo sapiens, UniProt P00533, L858R/T790M)', 'satisfied'),
  ('CCN1CCN(c2ccc(-c3cc(Cl)c4c(c3)C(=O)N(C(C(=O)Nc3nccs3)c3ncn5c3CCC5)C4)cc2)CC1 (racemic)', 'Phospho EGFR TMLR (H1975 cells) (Homo sapiens, UniProt P00533, L858R/T790M)', 'not satisfied'),
  ('O=C(Nc1nccs1)C(c1ccn2c1CCC2)N1Cc2c(F)cc(C#Cc3ccc(CN4CCC(O)CC4)cc3)cc2C1=O (racemic)', 'Phospho EGFR TMLR (H1975 cells) (Homo sapiens, UniProt P00533, L858R/T790M)', 'not satisfied');
